# experiment.summary: Half life in rat at 1 mg/kg, iv
# Type: ADME, organism-based
# Design: dose 1 mg/kg, route intravenous
# assay.context: in vivo
measurement.name: half-life (h)

(1) Cc1cn(-c2cc(NC(=O)c3cccc(-c4ccc5nc(NC(=O)C6CC6)sc5n4)c3)cc(C(F)(F)F)c2)cn1
(2) CCN1CCN(Cc2ccc(NC(=O)c3cccc(-c4ccc5nc(NC(=O)C6CC6)sc5n4)c3)cc2C(F)(F)F)CC1
Lookup: Hello, I am sorting some records. Could you say if 1 or 2 has the smaller half-life value? Indicate which entry you chose by stating its label.
Found: 1
(1: 2.4 h, 2: 5.8 h)

---

# experiment.summary: Cytotoxicity against mouse parental BA/F3 cells
# assay.context: BaF3
measurement.name: EC50 (µM)
# output: bare number, implied unit µM

Lookup: Any idea what EC50 was measured for `CCN1CCN(Cc2ccc(NC(=O)c3cccc(-c4ccc5nc(NC(=O)C6CC6)sc5n4)c3)cc2C(F)(F)F)CC1` ?
Found: 3.08

---

# experiment.summary: Cmax in rat at 2 mg/kg, po
# Type: ADME, organism-based
# Design: dose 2 mg/kg, route oral
# assay.context: in vivo
measurement.name: Cmax (ng/mL)

(1) CCN1CCN(Cc2ccc(NC(=O)c3cccc(-c4ccc5nc(NC(=O)C6CC6)sc5n4)c3)cc2C(F)(F)F)CC1
(2) Cc1cn(-c2cc(NC(=O)c3cccc(-c4ccc5nc(NC(=O)C6CC6)sc5n4)c3)cc(C(F)(F)F)c2)cn1
Lookup: Hello, I am sorting some records. Could you say if 1 or 2 has the smaller Cmax value? Indicate which entry you chose by stating its label.
Found: 2
(2: 32 ng/mL, 1: 53.1 ng/mL)

---

# experiment.summary: Cytotoxicity against mouse BA/F3 cells expressing wild type Bcr-Abl
# Type: functional, cell-based
# assay.context: BaF3
measurement.name: pEC50
The scale used: pEC50 is minus the common logarithm of the concentration in molar units.

INSERT INTO measurements (chemical_string, measurement_name, observed_value) VALUES
  ('CCN1CCN(Cc2ccc(NC(=O)c3ccc(F)c(-c4ccc5nc(NC(=O)C6CC6)sc5n4)c3)cc2C(F)(F)F)CC1', 'pEC50', 7.70),
  ('Cc1cn(-c2cc(NC(=O)c3ccc(F)c(-c4ccc5nc(NC(=O)C6CC6)sc5n4)c3)cc(C(F)(F)F)c2)cn1', 'pEC50', 7.70),
  ('Cc1cn(-c2cc(NC(=O)c3cccc(-c4ccc5nc(NC(=O)C6CC6)sc5n4)c3)cc(C(F)(F)F)c2)cn1', 'pEC50', 6.42);

Lookup: Any idea what pEC50 was measured for `CCN1CCN(Cc2ccc(NC(=O)c3ccc(C)c(-c4ccc5nc(NC(=O)C6CC6)sc5n4)c3)cc2C(F)(F)F)CC1` ?
Found: 9.00

---

# experiment.summary: Clearance in rat at 2 mg/kg, po
# Assay type: ADME, organism-based
# Parameters: dose 2 mg/kg, route oral
# assay.context: in vivo
measurement.name: CL/F (mL/min/kg)

(I) CCN1CCN(Cc2ccc(NC(=O)c3cccc(-c4ccc5nc(NC(=O)C6CC6)sc5n4)c3)cc2C(F)(F)F)CC1
(II) Cc1cn(-c2cc(NC(=O)c3cccc(-c4ccc5nc(NC(=O)C6CC6)sc5n4)c3)cc(C(F)(F)F)c2)cn1
Lookup: Hello, I am sorting some records. Could you say if I or II has the smaller CL/F value? Indicate which entry you chose by stating its label.
Found: I
(I: 74.4 mL/min/kg, II: 303 mL/min/kg)

Taken from ChEMBL document CHEMBL2146457.
